This collection of values is drawn from paper PMC2409900.

assay: Pharmacokinetic study: plasma levels after single i.v. or p.o. dose; conditions: female, Wistar, rat, in vivo, iv, 10 mg/kg
Quantity Measured: k el

Name the recorded k el for NS(=O)(=O)Oc1ccc2c3c(c(=O)oc2c1)CCCCC3 [667 COUMATE] . 0.000167 s⁻¹

====

assay: Pharmacokinetic study: plasma levels after single i.v. or p.o. dose; conditions: female, Wistar, rat, in vivo, iv, 10 mg/kg
Quantity Measured: Vd (L/kg)
Hi! Could you send only the number? It should be in L/kg, unit omitted.

Name the recorded Vd for NS(=O)(=O)Oc1ccc2c3c(c(=O)oc2c1)CCCCC3 [667 COUMATE] . 0.0939

====

assay: Pharmacokinetic study: plasma levels after single i.v. or p.o. dose; details: female, Wistar, rat, in vivo, iv, 10 mg/kg, t1/2β, 10 mg kg^−1 bolus i.v., rat plasma
Quantity Measured: half-life (h)
Hi! Could you send only the number? It should be in h, unit omitted.

Name the recorded half-life for NS(=O)(=O)Oc1ccc2c3c(c(=O)oc2c1)CCCCC3 [667 COUMATE] . 1.2

====

experiment: Pharmacokinetic study: plasma levels after single i.v. or p.o. dose; conditions: female, Wistar, rat, in vivo, 10 mg kg^−1
Quantity Measured: concentration at 8 h

Name the recorded concentration at 8 h for NS(=O)(=O)Oc1ccc2c3c(c(=O)oc2c1)CCCCC3 [667 COUMATE] . > 100 ng/mL

====

experiment: Pharmacokinetic study: plasma levels after single i.v. or p.o. dose; details: female, Wistar, rat, in vivo, po, 10 mg/kg, t1/2β, 10 mg kg^−1 p.o., rat plasma
Quantity Measured: half-life (h)
Hi! Could you send only the number? It should be in h, unit omitted.

Name the recorded half-life for NS(=O)(=O)Oc1ccc2c3c(c(=O)oc2c1)CCCCC3 [667 COUMATE] . 2

====

assay: Pharmacokinetic study: plasma levels after single i.v. or p.o. dose; settings: female, Wistar, rat, in vivo, iv, 10 mg/kg, Cl, 10 mg kg^−1 bolus i.v.; Cl=dose/AUC
Quantity Measured: clearance (mL/min)
Hi! Could you send only the number? It should be in mL/min, unit omitted.

Name the recorded clearance for NS(=O)(=O)Oc1ccc2c3c(c(=O)oc2c1)CCCCC3 [667 COUMATE] . 0.883

====

assay: Pharmacokinetic study: plasma levels after single i.v. or p.o. dose; settings: female, Wistar, rat, in vivo, iv, 10 mg/kg
Quantity Measured: AUC (ng·h/mL)
Hi! Could you send only the number? It should be in ng·h/mL, unit omitted.

Name the recorded AUC for NS(=O)(=O)Oc1ccc2c3c(c(=O)oc2c1)CCCCC3 [667 COUMATE] . 35800

====

Test: Pharmacokinetic study: plasma levels after single i.v. or p.o. dose
Conditions: female, Wistar, rat, in vivo, iv, 10 mg/kg
Procedure: Female Wistar (155–165 g) rats were purchased from Charles River UK Ltd (Margate, Kent, UK) and housed in a dedicated animal facility. […] Pharmacokinetic parameters were calculated using WinNonlin software (Pharsight Corporation, Mountview, CA, USA). The area under the curve (AUC) was calculated using the linear trapezoidal method with extrapolation of the terminal phase to infinity. […]
Quantity Measured: Cmax (ng/mL)
Hi! Could you send only the number? It should be in ng/mL, unit omitted.

Name the recorded Cmax for NS(=O)(=O)Oc1ccc2c3c(c(=O)oc2c1)CCCCC3 [667 COUMATE] . 22800
